B1: RIPK4 (parent)
chain: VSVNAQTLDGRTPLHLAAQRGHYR

variants of: B1; assay: protein stability index of a GFP-peptide fusion (GPS, HEK-293T) (PSI 1-6); higher = more stable; details: c terminus: a fixed tail appended;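 further: lentivirally expressed fusions sorted by FACS into six bins by GFP to DsRed ratio, PSI derived from sequencing read proportions per bin multiplied by bin number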
Kindly return rule met if reported protein stability index is no lower than 3; return rule not met if it is lower.

[[record]]
variant_name = "L8K"
classification = "rule met"

[[record]]
variant_name = "T7W"
classification = "rule not met"

[[record]]
variant_name = "V1L"
classification = "rule met"

[[record]]
variant_name = "V1A"
classification = "rule met"

[[record]]
variant_name = "Y23R"
classification = "rule met"

[[record]]
variant_name = "G10T"
classification = "rule met"

[[record]]
variant_name = "R20I"
classification = "rule not met"

[[record]]
variant_name = "R20M"
classification = "rule not met"

[[record]]
variant_name = "Q19E"
classification = "rule met"

[[record]]
variant_name = "S2A"
classification = "rule met"

[[record]]
variant_name = "D9W"
classification = "rule not met"

[[record]]
variant_name = "T7I"
classification = "rule not met"

[[record]]
variant_name = "V3R"
classification = "rule met"

[[record]]
variant_name = "L8N"
classification = "rule met"

[[record]]
variant_name = "N4H"
classification = "rule met"

[[record]]
variant_name = "Q6P"
classification = "rule met"

[[record]]
variant_name = "P13A"
classification = "rule met"

[[record]]
variant_name = "R24Q"
classification = "rule not met"

[[record]]
variant_name = "Q19D"
classification = "rule met"

[[record]]
variant_name = "Q6L"
classification = "rule met"

[[record]]
variant_name = "V1K"
classification = "rule met"

[[record]]
variant_name = "L14K"
classification = "rule met"

[[record]]
variant_name = "P13K"
classification = "rule not met"

[[record]]
variant_name = "V1N"
classification = "rule met"

[[record]]
variant_name = "L14P"
classification = "rule met"

[[record]]
variant_name = "P13D"
classification = "rule met"

[[record]]
variant_name = "A5D"
classification = "rule met"

[[record]]
variant_name = "L14F"
classification = "rule met"

[[record]]
variant_name = "Y23K"
classification = "rule met"

[[record]]
variant_name = "G10P"
classification = "rule met"

[[record]]
variant_name = "Q19M"
classification = "rule not met"

[[record]]
variant_name = "V3W"
classification = "rule not met"

[[record]]
variant_name = "L16K"
classification = "rule met"

[[record]]
variant_name = "A17S"
classification = "rule met"

[[record]]
variant_name = "R20Q"
classification = "rule met"

[[record]]
variant_name = "H15W"
classification = "rule not met"

[[record]]
variant_name = "R11A"
classification = "rule met"

[[record]]
variant_name = "H15I"
classification = "rule not met"

[[record]]
variant_name = "R20H"
classification = "rule not met"

[[record]]
variant_name = "R20S"
classification = "rule not met"

[[record]]
variant_name = "H22R"
classification = "rule met"

[[record]]
variant_name = "Q19W"
classification = "rule not met"

[[record]]
variant_name = "G10N"
classification = "rule met"

[[record]]
variant_name = "V3E"
classification = "rule met"

[[record]]
variant_name = "L8W"
classification = "rule met"

[[record]]
variant_name = "L14H"
classification = "rule met"

[[record]]
variant_name = "T7L"
classification = "rule met"

[[record]]
variant_name = "G21S"
classification = "rule not met"

[[record]]
variant_name = "P13E"
classification = "rule met"

[[record]]
variant_name = "H22E"
classification = "rule met"

[[record]]
variant_name = "T12E"
classification = "rule met"

[[record]]
variant_name = "T7P"
classification = "rule met"

[[record]]
variant_name = "A5C"
classification = "rule met"

[[record]]
variant_name = "Y23A"
classification = "rule met"

[[record]]
variant_name = "R24L"
classification = "rule not met"

[[record]]
variant_name = "T7D"
classification = "rule met"

[[record]]
variant_name = "L8E"
classification = "rule met"

[[record]]
variant_name = "A17Q"
classification = "rule met"

[[record]]
variant_name = "T12V"
classification = "rule met"

[[record]]
variant_name = "V1S"
classification = "rule met"

[[record]]
variant_name = "L14I"
classification = "rule met"

[[record]]
variant_name = "Q19F"
classification = "rule not met"

[[record]]
variant_name = "A5V"
classification = "rule not met"

[[record]]
variant_name = "H15P"
classification = "rule met"

[[record]]
variant_name = "R20F"
classification = "rule not met"

[[record]]
variant_name = "L16Y"
classification = "rule met"

[[record]]
variant_name = "H15S"
classification = "rule met"

[[record]]
variant_name = "A5E"
classification = "rule met"

[[record]]
variant_name = "H15K"
classification = "rule met"

[[record]]
variant_name = "N4K"
classification = "rule met"

[[record]]
variant_name = "Q19R"
classification = "rule met"

[[record]]
variant_name = "H15D"
classification = "rule met"

[[record]]
variant_name = "A17D"
classification = "rule met"

[[record]]
variant_name = "Y23H"
classification = "rule met"

[[record]]
variant_name = "L14N"
classification = "rule met"

[[record]]
variant_name = "T12L"
classification = "rule not met"

[[record]]
variant_name = "H15E"
classification = "rule met"

[[record]]
variant_name = "D9C"
classification = "rule met"

[[record]]
variant_name = "T7H"
classification = "rule met"

[[record]]
variant_name = "S2F"
classification = "rule not met"

